# maps each entry to its melting point

[
  {
    "Molecule": "COCCc1nc2c(N)nc3c(c2n1CCOCCNS(C)(=O)=O)CCCC3 [Example 2]",
    "melting point": "151 to 153 °C"
  },
  {
    "Molecule": "COCCc1nc2c(N)nc3ccccc3c2n1CCOCCN(C)S(C)(=O)=O [Example 3]",
    "melting point": "145 to 146.5 °C"
  },
  {
    "Molecule": "Cc1nc2c(N)nc3ccccc3c2n1CCOCCNS(C)(=O)=O [Example 54]",
    "melting point": "152 to 155 °C"
  },
  {
    "Molecule": "CCCCc1nc2c(N)nc3ccccc3c2n1CCOCCN1CCCS1(=O)=O [Example 5]",
    "melting point": "152 to 154 °C"
  },
  {
    "Molecule": "COCCc1nc2c(N)nc3ccccc3c2n1CCOCCN(C)S(=O)(=O)C(C)C [Example 59]",
    "melting point": "129.7 to 130.2 °C"
  },
  {
    "Molecule": "Cc1nc2c(N)nc3ccccc3c2n1CCOCCN [Example 51]",
    "melting point": "155 to 157 °C"
  },
  {
    "Molecule": "COCCc1nc2c(N)nc3ccccc3c2n1CCOCCNS(C)(=O)=O [Example 1]",
    "melting point": "114 to 117 °C"
  },
  {
    "Molecule": "Cc1nc2c(N)nc3ccccc3c2n1CCOCCN1CCCS1(=O)=O [Example 60]",
    "melting point": "186 to 187 °C"
  },
  {
    "Molecule": "CCOCc1nc2c(N)nc3ccccc3c2n1CCOCCNS(C)(=O)=O [Example 57]",
    "melting point": "152 to 155 °C"
  },
  {
    "Molecule": "CCOCc1nc2c(N)nc3ccccc3c2n1CCOCCNS(=O)(=O)C(C)C [Example 58]",
    "melting point": "139 to 142 °C"
  },
  {
    "Molecule": "CCc1nc2c(N)nc3ccccc3c2n1CCOCCNS(C)(=O)=O [Example 56]",
    "melting point": "169 to 171 °C"
  },
  {
    "Molecule": "Cc1nc2c(N)nc3ccccc3c2n1CCOCCNS(=O)(=O)C(C)C [Example 55]",
    "melting point": "172 to 175 °C"
  },
  {
    "Molecule": "CCc1nc2c(N)nc3ccccc3c2n1CCOCCN [Example 52]",
    "melting point": "144 to 146 °C"
  },
  {
    "Molecule": "COCCc1nc2c(N)nc3c(c2n1CCOCCN(C)S(C)(=O)=O)CCCC3 [Example 4]",
    "melting point": "115.3 to 117.8 °C"
  }
]

* * *

- Tested on: interferon (α)
- Assay Info: Cytokine Induction in Human Cells: interferon (α) by ELISA
- Type: cell-based
- Parameters: key: *: no induction was seen at any of the tested concentrations; generally the highest concentration tested was 10 or 30 μM
- Reported Conditions: human PBMC, 18 to 24 hours incubation, lowest concentration found to induce interferon
Recorded Endpoint: Lowest Effective Concentration (μM) Interferon

[
  {
    "Compound": "CCCCc1nc2c(N)nc3ccccc3c2n1CCOCCNS(=O)(=O)c1ccc2ccccc2c1 [Example 19]",
    "Result": "*"
  },
  {
    "Compound": "Nc1nc2ccccc2c2c1ncn2CCOCCNS(=O)(=O)c1ccc2ccccc2c1 [Example 45]",
    "Result": "*"
  },
  {
    "Compound": "Nc1nc2ccccc2c2c1ncn2CCOCCNS(=O)(=O)c1ccc(C(F)(F)F)cc1 [Example 46]",
    "Result": "*"
  },
  {
    "Compound": "CCCCc1nc2c(N)nc3ccccc3c2n1CCOCCNS(=O)(=O)c1cccc2ccccc12 [Example 18]",
    "Result": "*"
  }
]
